Listed compounds paired with reported IC50
Target: GCS (Canis lupus familiaris, UniProt A0A8I3MXG6)
Sequence (A0A8I3MXG6 1-394): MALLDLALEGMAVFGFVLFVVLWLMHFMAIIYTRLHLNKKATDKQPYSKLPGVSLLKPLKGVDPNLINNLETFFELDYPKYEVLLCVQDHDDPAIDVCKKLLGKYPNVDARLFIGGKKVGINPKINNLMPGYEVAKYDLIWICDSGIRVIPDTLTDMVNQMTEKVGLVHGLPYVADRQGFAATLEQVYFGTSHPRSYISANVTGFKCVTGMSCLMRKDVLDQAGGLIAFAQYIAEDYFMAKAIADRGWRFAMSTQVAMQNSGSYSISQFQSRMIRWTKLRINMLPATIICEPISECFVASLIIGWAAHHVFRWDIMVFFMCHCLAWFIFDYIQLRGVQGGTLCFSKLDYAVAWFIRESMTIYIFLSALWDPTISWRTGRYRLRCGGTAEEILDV
Assay: Assay 1: GCS Enzymatic Assay (MDCK cell lysate, C6-NBD-Ceramide, LC/MS)
Format: biochemical, canine
Conditions: Table 2; data without asterisk; read-out: IC50 (nM) generated from Assay 1
Method: This assay was modified based on the study by Larsen et al. (J. Lipid Res. 2011, 53, 282). […] Protein concentration was determined using BCA assay kit (Pierce). […] The quantitative analysis of NBD-Ceramide and glucosylceramide was performed on a Shimadzu ultra-fast liquid chromatography (Shimadzu, Japan) coupled with API 4000 triple quadrupole mass spectrometer (Applied Biosystems, Concord, Ontario, Canada). […]

Completed entries (count: 8):
1) CC(C)n1ccc2cc(-c3ccc(C(=O)C(=O)N[C@H](CN4CCCC4)[C@H](O)c4ccc(OC5CC5)c(Cl)c4)cc3)ccc21	< 50 nM
2) O=C(N[C@H](CN1CCC1)[C@H](O)c1ccc(OC2CC2)c(F)c1)C(=O)c1cc2ccc(Cl)cc2s1	< 50 nM
3) Cc1c2ccc(-c3ccc(C(=O)C(=O)N[C@H](CN4CCCC4)[C@H](O)c4cc(F)c5c(c4)OCCO5)cc3)cc2nn1C(C)C	< 50 nM
4) O=C(N[C@H](CN1CCCC1)[C@H](O)c1ccc(OCC(F)(F)F)nc1)C(F)(F)c1cc2cc(Cl)ccc2o1	< 50 nM
5) CC(C)Oc1ccc([C@@H](O)[C@@H](CN2CCCC2)NC(=O)C(F)(F)c2cc3cc(Cl)ccc3o2)cc1Cl	< 50 nM
6) O=C(N[C@H](CN1CCCC1)[C@H](O)c1ccc(OCC(F)(F)F)nc1)C(F)(F)CCc1ccc2ccccc2c1	50 to 5000 nM
7) O=C(N[C@H](CN1CCCC1)[C@H](O)c1cc(F)c2c(c1)OCCO2)C(=O)c1ccc2ccc(Cl)cc2c1	< 50 nM
8) O=C(N[C@H](CN1CCCC1)[C@H](O)c1ccc(OC2CC2)c(Cl)c1)C(=O)c1ccc(-c2ccc3scnc3c2)cc1	< 50 nM

Problem: // lookup IC50 for O=C(N[C@H](CN1CCCC1)[C@H](O)c1cc(F)c2c(c1)OCCO2)C(=O)c1ccc(-c2ccc(F)cn2)cc1
Result: < 50 nM

Problem: And then O=C(N[C@H](CN1CCCC1)[C@H](O)c1cc(F)c2c(c1)OCCO2)/C(CCc1ccc2cc(F)ccc2c1)=N/O , what is it?
Result: < 50 nM

Problem: Next record, please: CC(C)n1cc2ccc(-c3ccc(C(=O)C(=O)N[C@H](CN4CCCC4)[C@H](O)c4ccc(OC5CC5)c(Cl)c4)cc3)cc2n1
Result: < 50 nM

Problem: What about this compound? O=C(N[C@H](CN1CCCC1)[C@H](O)c1ccc(OC2CC2)c(Cl)c1)C(=O)c1cc2cc(Cl)ccc2o1
Result: < 50 nM

Problem: What about CC(C)Oc1ccc(C(O)[C@@H](CN2CCCC2)NC(=O)C(F)(F)c2cc3cc(Cl)ccc3o2)cn1 (stereo in doubt) ?
Result: 50 to 5000 nM

----------
target: GCS (Canis lupus familiaris, UniProt A0A8I3MXG6); assay: Assay 1: GCS Enzymatic Assay (MDCK cell lysate, C6-NBD-Ceramide, LC/MS); type: biochemical, canine; settings: Table 2; data without asterisk; read-out: IC50 (nM) generated from Assay 1
Test Readout: IC50

Example compounds with recorded IC50:
1. O=C(N[C@H](CN1CCC1)[C@H](O)c1cc(F)c2c(c1)OCCO2)C(=O)c1cc2cc(Cl)ccc2o1	< 50 nM
2. O=C(N[C@H](CN1CCCC1)[C@H](O)c1cc(Cl)c2c(c1)OCCO2)C(=O)c1ccc(-c2ccc(F)cc2)cc1	< 50 nM
3. O=C(N[C@H](CN1CCCC1)[C@H](O)c1cc(F)c2c(c1)OCCO2)C(F)(F)CCc1ccc2c(c1)CCCC2	< 50 nM

Problem: Which IC50 is listed for O=C(N[C@H](CN1CCCC1)[C@H](O)c1cc(F)c2c(c1)OCCO2)C(=O)c1cccc(-c2ccc(F)cc2)c1 ?
Result: < 50 nM

Problem: Also check O=C(N[C@H](CN1CCC1)[C@H](O)c1cc(F)c2c(c1)OCCO2)/C(CCc1ccc2cc(F)ccc2c1)=N/O
Result: 50 to 5000 nM

Problem: Please do the same for Cn1ncc2ccc(C(=O)C(=O)N[C@H](CN3CCCC3)[C@H](O)c3ccc(OC4CC4)c(Cl)c3)cc21 as well.
Result: < 50 nM

Problem: // query: Cc1c2cc(-c3ccc(C(=O)C(=O)N[C@H](CN4CCCC4)[C@H](O)c4ccc(OC5CC5)c(Cl)c4)cc3)ccc2nn1C(C)C
Result: < 50 nM
